# target-system: T1, Biotinylated Avitag-hSCF (human, UniProt P21583 26-190, limits assumed, biotinylated Avitag)
# T1 construct: Bought reagent; also called hSCF (Acros Biosystems SCF-H82E1)
# T1 sequence (P21583 26-190 limits assumed): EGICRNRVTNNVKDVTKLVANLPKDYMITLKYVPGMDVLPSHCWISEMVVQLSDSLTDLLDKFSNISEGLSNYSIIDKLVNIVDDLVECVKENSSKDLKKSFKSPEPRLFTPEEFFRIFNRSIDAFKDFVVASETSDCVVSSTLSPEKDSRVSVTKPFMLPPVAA
# assay-remarks: BLI (Octet), steady state: biotinylated SCF on streptavidin biosensor, CD117 D1-2-3 variant as analyte; KD relative to WT

binder	binding result
K193E (receptor, not in the list MOLECULES; also called human CD117 D1-2-3 variant K193E) extracellular domains 1, 2 and 3: QPSVSPGEPSPPSIHPGKSDLIVRVGDEIRLLCTDPGFVKWTFEILDETNENKQNEWITEKAEATNTGKYTCTNKHGLSNSIYVFVRDPAKLFLVDRSLYGKEDNDTLVRCPLTDPEVTNYSLKGCQGKPLPKDLRFIPDPKAGIMIKSVKRAYHRLCLHCSVDQEGESVLSEKFILKVRPAFKAVPVVSVSKASYLLREGEEFTVTCTIKDVSSSVYSTWKRENSQTKLQEKYNSWHHGDFNYERQATLTISSARVNDSGVFMCYANNTFGSANVTTTLEVVD	binds
R122L (receptor, not in the list MOLECULES; also called human CD117 D1-2-3 variant R122L) extracellular domains 1, 2 and 3: QPSVSPGEPSPPSIHPGKSDLIVRVGDEIRLLCTDPGFVKWTFEILDETNENKQNEWITEKAEATNTGKYTCTNKHGLSNSIYVFVRDPAKLFLVDLSLYGKEDNDTLVRCPLTDPEVTNYSLKGCQGKPLPKDLRFIPDPKAGIMIKSVKRAYHRLCLHCSVDQEGKSVLSEKFILKVRPAFKAVPVVSVSKASYLLREGEEFTVTCTIKDVSSSVYSTWKRENSQTKLQEKYNSWHHGDFNYERQATLTISSARVNDSGVFMCYANNTFGSANVTTTLEVVD	binds
